- TESTED TARGET: Potassium voltage-gated channel subfamily KQT member 2 (Rattus norvegicus, UniProt O88943)
- Sequence (O88943 whole entry): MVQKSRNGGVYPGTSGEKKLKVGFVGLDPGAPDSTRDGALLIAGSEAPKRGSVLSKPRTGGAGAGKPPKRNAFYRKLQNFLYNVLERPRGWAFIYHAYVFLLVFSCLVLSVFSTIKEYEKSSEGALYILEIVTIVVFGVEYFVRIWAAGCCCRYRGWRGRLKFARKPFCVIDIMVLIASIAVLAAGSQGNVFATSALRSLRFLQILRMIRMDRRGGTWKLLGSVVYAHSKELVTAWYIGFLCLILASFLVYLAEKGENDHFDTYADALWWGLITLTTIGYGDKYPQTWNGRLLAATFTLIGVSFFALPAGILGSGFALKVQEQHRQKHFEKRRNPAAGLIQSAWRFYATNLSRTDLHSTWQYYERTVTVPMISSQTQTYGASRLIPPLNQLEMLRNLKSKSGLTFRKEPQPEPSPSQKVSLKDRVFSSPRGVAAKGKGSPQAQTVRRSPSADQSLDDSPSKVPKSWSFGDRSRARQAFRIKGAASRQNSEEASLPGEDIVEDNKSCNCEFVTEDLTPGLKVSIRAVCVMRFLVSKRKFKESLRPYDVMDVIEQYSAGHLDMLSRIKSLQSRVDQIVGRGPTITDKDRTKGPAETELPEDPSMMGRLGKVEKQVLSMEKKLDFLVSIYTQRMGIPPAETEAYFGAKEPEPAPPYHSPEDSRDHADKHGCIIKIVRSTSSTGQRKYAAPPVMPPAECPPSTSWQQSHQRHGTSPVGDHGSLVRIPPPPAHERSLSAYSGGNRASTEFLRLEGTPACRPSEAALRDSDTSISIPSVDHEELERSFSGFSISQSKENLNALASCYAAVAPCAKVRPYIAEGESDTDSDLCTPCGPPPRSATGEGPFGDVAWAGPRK
- EXPERIMENT DESCRIPTION: potentiation of rat KCNQ2 current – cell-based, automated electrophysiology, mechanism study for KCNQ2 potentiator project, dose response (AID 2603)
MEASURED ENDPOINT: pEC50
Reminder that pEC50 means the negative base-10 logarithm of the concentration expressed in mol/L.

INSERT INTO results (compound, measured_endpoint, value_observed) VALUES
  ('CC(C)N1C(=O)C(=NNc2ccc(Cl)c(C(=O)O)c2)c2ccccc21', 'pEC50', 5.43);

Note: attention shifts to another entry.
Would you kindly share the measured pEC50 for CC1=NC(=O)NC(c2cccc(O)c2)C1C(=O)OC1CCCCCCC1 (configuration not stated) ?
3.27
